Exercise: for every item that follows, state its recorded IC50.

Request: For the record FC(F)(F)c1cc(-c2nnc(Sc3nc(Cl)cc(NCc4ccccc4)n3)[nH]2)cc(C(F)(F)F)c1 [Compound 16e] , what value of IC50 is listed for EcSecAN68 (Escherichia coli)?
Response: > 50 µM

Request: For the record COc1cc(OC)cc(-c2nnc(Sc3cc(Cl)nc(Sc4ccccc4)n3)[nH]2)c1 [Compound 12h] , what value of IC50 is listed for EcSecAN68 (Escherichia coli)?
Response: < 50 µM

Request: For the record FC(F)(F)c1cccc(-c2nnc(Sc3cc(Cl)nc(Sc4ccccc4)n3)[nH]2)c1 [Compound 12g] , what value of IC50 is listed for EcSecAN68 (Escherichia coli)?
Response: < 50 µM

Request: For the record Cc1cc(C)cc(-c2nnc(Sc3cc(Cl)ncn3)[nH]2)c1 , what value of IC50 is listed for EcSecAN68 (Escherichia coli)?
Response: > 200 µM

Request: For the record COc1cc(O)cc(-c2nnc(Sc3cc(Cl)nc(Sc4ccccc4)n3)[nH]2)c1 [Compound 12j] , what value of IC50 is listed for EcSecAN68 (Escherichia coli)?
Response: < 50 µM

Request: For the record CSc1nc(Cl)c2c(n1)Sc1nnc(-c3cc(C(F)(F)F)cc(C(F)(F)F)c3)n1N=C2 , what value of IC50 is listed for EcSecAN68 (Escherichia coli)?
Response: < 25 µM

Request: For the record Fc1cc(F)cc(-c2nnc(Sc3cc(Cl)nc(Sc4ccccc4)n3)[nH]2)c1 [Compound 12f] , what value of IC50 is listed for EcSecAN68 (Escherichia coli)?
Response: < 50 µM

Request: For the record CSc1nc(Cl)cc(Sc2nnc(-c3ccc(C(F)(F)F)cc3)[nH]2)n1 , what value of IC50 is listed for EcSecAN68 (Escherichia coli)?
Response: < 50 µM

Request: For the record CSc1nc(Cl)cc(Sc2nnc(-c3cc(F)cc(F)c3)[nH]2)n1 , what value of IC50 is listed for EcSecAN68 (Escherichia coli)?
Response: > 100 µM

Request: For the record Fc1cccc(-c2nnc(Sc3nc(Cl)cc(Cl)n3)[nH]2)c1 [Compound 16d] , what value of IC50 is listed for EcSecAN68 (Escherichia coli)?
Response: > 100 µM
